# System name: T1, human PD-1 (hPD-1) monomer (human, UniProt Q15116 25-167)
# T1 construct: also called hu-PD-1; not shown: His tag (His-tagged monomer)
# T1 sequence (Q15116 25-167 limits assumed): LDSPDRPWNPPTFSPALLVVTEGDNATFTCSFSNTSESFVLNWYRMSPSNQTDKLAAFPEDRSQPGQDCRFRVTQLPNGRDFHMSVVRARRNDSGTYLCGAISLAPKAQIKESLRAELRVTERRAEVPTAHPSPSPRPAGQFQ
# Measurement description: SPR, human PD-1, 25 C
What pKd was measured for each of the following?
Numbers only, as −log10 of the molar value.

# count of solved cases: 7
binder="mAb2 (antibody, V domains shown, Variable regions only) VH: QVQLVQSGAEVKKPGASVKVSCKASGYTFTSYWINWVRQAPGQGLEWMGNIYPGSSLTNYNEKFKNRVTMTRDTSTSTVYMELSSLRSEDTAVYYCARLLTGTFAYWGQGTLVTVSS VL: DIVMTQSPDSLAVSLGERATINCKSSQSLWDSGNQKNFLTWYQQKPGQPPKLLIYWTSYRESGVPDRFSGSGSGTDFTLTISSLQAEDVAVYYCQNDYFYPLTFGGGTKVEIK" experimental_readout=pKd reported_value=8.65
binder="mAb6 (antibody, V domains shown, Variable regions only) VH: QVQLVQSGAEVKKPGASVKVSCKASGYTFTSYWINWVRQAPGQGLEWMGNIYPGSSLTNYNEKFKNRVTMTRDTSTSTVYMELSSLRSEDTAVYYCARLSTGTFAYWGQGTLVTVSS VL: DIVMTQSPDSLAVSLGERATINCKSSQSLWDSGNQKNFLTWYQQKPGQPPKLLIYWTSYRESGVPDRFSGSGSGTDFTLTISSLQAEDVAVYYCQNDYFYPLTFGGGTKVEIK" experimental_readout=pKd reported_value=8.94
binder="mAb10 (antibody, V domains shown, Variable regions only) VH: QVQLVQSGAEVKKPGASVKVSCKASGYTFTSYWINWVRQAPGQGLEWMGNIYPGSSITNYNEKFKNRVTMTRDTSTSTVYMELSSLRSEDTAVYYCARLTTGTFAYWGQGTLVTVSS VL: DIVMTQSPDSLAVSLGERATINCKSSQSLWDSGNQKNFLTWYQQKPGQPPKLLIYWTSYRESGVPDRFSGSGSGTDFTLTISSLQAEDVAVYYCQNDYFYPLTFGGGTKVEIK" experimental_readout=pKd reported_value=9.01
binder="mAb8 (antibody, V domains shown, Variable regions only) VH: QVQLVQSGAEVKKPGASVKVSCKASGYTFTSYWINWVRQAPGQGLEWMGNIYPGSSLTNYNEKFKNRVTMTRDTSTSTVYMELSSLRSEDTAVYYCARLSTGTFAYWGQGTLVTVSS VL: DIVMTQSPDSLAVSLGERATINCKSSQSLWDSTNQKNFLTWYQQKPGQPPKLLIYWTSTRESGVPDRFSGSGSGTDFTLTISSLQAEDVAVYYCQNDYFYPLTFGGGTKVEIK" experimental_readout=pKd reported_value=7.76
binder="mAb5 (antibody, V domains shown, Variable regions only) VH: QVQLVQSGAEVKKPGASVKVSCKASGYTFTSYWINWVRQAPGQGLEWMGNIYPGSSLTNYNEKFKNRVTMTRDTSTSTVYMELSSLRSEDTAVYYCARLSTGTFAYWGQGTLVTVSS VL: DIVMTQSPDSLAVSLGERATINCKSSQSLWDSGNQKNFLTWYQQKPGQPPKLLIYWTSTRESGVPDRFSGSGSGTDFTLTISSLQAEDVAVYYCQNDYFYPLTFGGGTKVEIK" experimental_readout=pKd reported_value=7.89
binder="mAb9 (antibody, V domains shown, Variable regions only) VH: QVQLVQSGAEVKKPGASVKVSCKASGYTFTSYWINWVRQAPGQGLEWMGNIYPGSSITNYNEKFKNRVTMTRDTSTSTVYMELSSLRSEDTAVYYCARLTTGTFAYWGQGTLVTVSS VL: DIVMTQSPDSLAVSLGERATINCKSSQSLWDSGNQKNFLTWYQQKPGQPPKLLIYWTSTRESGVPDRFSGSGSGTDFTLTISSLQAEDVAVYYCQNDYFYPLTFGGGTKVEIK" experimental_readout=pKd reported_value=7.87
binder="mAb11 (antibody, V domains shown, Variable regions only) VH: QVQLVQSGAEVKKPGASVKVSCKASGYTFTSYWINWVRQAPGQGLEWMGNIYPGSSITNYNEKFKNRVTMTRDTSTSTVYMELSSLRSEDTAVYYCARLTTGTFAYWGQGTLVTVSS VL: DIVMTQSPDSLAVSLGERATINCKSSQSLWDSGNQKNFLTWYQQKPGQPPKLLIYWTSYRESGVPDRFSGSGSGTDFTLTISSLQAEDVAVYYCQNDYFYPHTFGGGTKVEIK" experimental_readout=pKd reported_value=9.03

Please look at the following binder next.
QUERY: What measured pKd goes with mAb12 (antibody, V domains shown, Variable regions only) VH: QVQLVQSGAEVKKPGASVKVSCKASGYTFTSYWINWVRQAPGQGLEWMGNIYPGSSITNYNEKFKNRVTMTRDTSTSTVYMELSSLRSEDTAVYYCARLTTGTFAYWGQGTLVTVSS VL: DIVMTQSPDSLAVSLGERATINCKSSQSLWDSTNQKNFLTWYQQKPGQPPKLLIYWTSTRESGVPDRFSGSGSGTDFTLTISSLQAEDVAVYYCQNDYFYPLTFGGGTKVEIK ?
RESULT: 7.76
